Data provenance: PubChem BioAssay AID1117319

Each item that follows carries a reported inhibition.
# SYSTEM_TESTED: Virion infectivity factor (Human immunodeficiency virus type 1 group M subtype B (isolate BH10)) + Virion infectivity factor (Human immunodeficiency virus type 1 group M subtype B (isolate BRU/LAI)) + Virion infectivity factor (Human immunodeficiency virus type 1 group M subtype B (isolate PCV12)) + Virion infectivity factor (Human immunodeficiency virus type 1 group M subtype B (isolate HXB2)) + DNA dC->dU-editing enzyme APOBEC-3G (Homo sapiens) (UniProt P69720+P69721+P69722+P69723+Q9HC16)
# PROTOCOL_TEXT: inhibitors of Vif binding to APOBEC3G peptide, primary screen, biochemical, TR-FRET, GST-Vif 1-94, biotin-A3G peptide, dose response retest (AID 1117319);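 also: Vif residues 1-94 fused to GST binding biotinylated APOBEC3G peptide 110-148; 0% = full assay without inhibitor and 100% = GST in place of GST-Vif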
# CONDITION_INFO: active compounds read high
Screen size: about 260,000 compounds; about 1,500 (0.58%) were called active. Another 5% or so got no clear call; they are omitted. Only a sample is shown. Entries with a potency or affinity are not part of this list.
QUANTITY: inhibition (%)

• COc1cccc(C2NC(=O)c3ccccc3O2)c1OC (stereo not drawn) = -1.95
• O=C(/C=C/c1cccs1)Nc1ccc(N2CCOCC2)c(S(=O)(=O)Nc2ccccc2Cl)c1 = -5.05
• CCCNS(=O)(=O)c1ccc(CCC(=O)Nc2ccc3c(c2)OCO3)cc1 = 2.82

----------
# SYSTEM_TESTED: Virion infectivity factor (Human immunodeficiency virus type 1 group M subtype B (isolate BH10)) + Virion infectivity factor (Human immunodeficiency virus type 1 group M subtype B (isolate BRU/LAI)) + Virion infectivity factor (Human immunodeficiency virus type 1 group M subtype B (isolate PCV12)) + Virion infectivity factor (Human immunodeficiency virus type 1 group M subtype B (isolate HXB2)) + DNA dC->dU-editing enzyme APOBEC-3G (Homo sapiens) (UniProt P69720+P69721+P69722+P69723+Q9HC16)
# PROTOCOL_TEXT: inhibitors of Vif binding to APOBEC3G peptide, primary screen, biochemical, TR-FRET, GST-Vif 1-94, biotin-A3G peptide, dose response retest (AID 1117319);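 also: Vif residues 1-94 fused to GST binding biotinylated APOBEC3G peptide 110-148; 0% = full assay without inhibitor and 100% = GST in place of GST-Vif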
# CONDITION_INFO: active compounds read high
About 1,500 (0.58%) of roughly 260,000 compounds were called active. About 5% were inconclusive and are not listed. The list is a sample of the results. Potency and affinity values are given separately.
Below is a list of entries, each paired with its recorded inhibition value.
QUANTITY: inhibition (%)

* O=C1Nc2ccccc2N2CCCC12 (centres undefined) | -3.06
* O=C(Nc1cccc(S(=O)(=O)N2CCOCC2)c1)c1cc2ccccc2o1 | -1.28
* Cc1ccc(OC(=O)c2cccnc2)cc1 | -1.57
* CN(C)c1oc(-c2ccco2)nc1S(=O)(=O)c1ccc(Br)cc1 | 10.3
* CC(C)C1Nc2ccc(S(N)(=O)=O)cc2C2C=CCC21 (centres undefined) | 30.5
* CC1CCCCC1NC(=O)Cn1nnc2ccccc2c1=O (centres undefined) | -5.45
* COc1cc(S(=O)(=O)N(Cc2ccccn2)Cc2ccco2)ccc1-n1cnnn1 | -2.53
* CCN(CC)CCN(C(=O)CCS(=O)(=O)c1ccccc1)c1nc2cc(C)cc(C)c2s1 | 7.31
* CN1CCN(S(=O)(=O)c2ccc(Oc3ccc(Br)cc3F)nc2)CC1 | -0.65

----------
# SYSTEM_TESTED: Virion infectivity factor (Human immunodeficiency virus type 1 group M subtype B (isolate BH10)) + Virion infectivity factor (Human immunodeficiency virus type 1 group M subtype B (isolate BRU/LAI)) + Virion infectivity factor (Human immunodeficiency virus type 1 group M subtype B (isolate PCV12)) + Virion infectivity factor (Human immunodeficiency virus type 1 group M subtype B (isolate HXB2)) + DNA dC->dU-editing enzyme APOBEC-3G (Homo sapiens) (UniProt P69720+P69721+P69722+P69723+Q9HC16)
# PROTOCOL_TEXT: inhibitors of Vif binding to APOBEC3G peptide, primary screen, biochemical, TR-FRET, GST-Vif 1-94, biotin-A3G peptide, dose response retest (AID 1117319);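 also: Vif residues 1-94 fused to GST binding biotinylated APOBEC3G peptide 110-148; 0% = full assay without inhibitor and 100% = GST in place of GST-Vif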
# CONDITION_INFO: active compounds read high
Screen size: about 260,000 compounds; about 1,500 (0.58%) were called active. Another 5% or so got no clear call; they are omitted. These entries were drawn from the full list. Measured potencies and affinities stand elsewhere.
QUANTITY: inhibition

* CCC(=O)OCCNc1cc(Sc2nc3ccccc3s2)c2nonc2c1[N+](=O)[O-] | 5.25% (inactive)
* Nc1c(C(=O)OCC(=O)Nc2ccc(Cl)cc2[N+](=O)[O-])[nH]c(=O)[nH]c1=O | -3.88% (inactive)
* Cc1cc(C(C)(C)C)c(O)c(C(C)(C)C)c1 | 17.9% (inactive)
* Cc1oc2c(O)c(O)ccc2c(=O)c1-c1cnn(-c2ccccc2)c1 | 28.2% (inactive)
* Cc1c(C(=O)O)oc2c1C(=O)CC(C)(C)C2 | -2.53% (inactive)
* COc1ccc2c3c(cccc13)OCC2=O | 24.2% (inactive)
* COc1ccc(CCNC(=O)CN2CCOc3ccccc32)cc1OC | 2.79% (inactive)
* S=c1nc(-c2ccccc2)oc2c1CCCC2 | 2.15% (inactive)
* CC1CCCN(S(=O)(=O)c2ccc(S(=O)(=O)NC(C)c3cccs3)cc2)C1 (stereo unspecified) | -0.23% (inactive)
* CC(C)NC(=O)COc1ccc(Cl)cc1Cl | -3.29% (inactive)
* CC(=O)OCCCNc1cc(Sc2ccc(C)cc2)c2nonc2c1[N+](=O)[O-] | 15.4% (inactive)
* O=S(=O)(NC1CC1)c1ccc(S(=O)(=O)N2CCc3ccccc32)cc1 | 18.3% (inactive)
* CC(NC(=O)Cn1cnnn1)C12CC3CC(CC(C3)C1)C2 (stereo unspecified) | -1.37% (inactive)
* Nc1c(O)ccc2c1C(=O)c1ccccc1C2=O | 10.2% (inactive)
* O=C(CN1CCCc2ccccc21)NCCc1ccc(Cl)cc1 | 32.1% (inactive)
* O=C(O)c1cccc2cc(-c3ccccc3)oc(=O)c12 | 3% (inactive)
* CC(NC(N)=O)C(=O)Nc1ccc(Cl)c(S(=O)(=O)Nc2ccc(Br)cc2)c1 (stereo unspecified) | 10.3% (inactive)
* Nc1nc(CN2CCCCCC2)nc(Nc2ccc(F)cc2)n1 | -3.7% (inactive)
* CS(=O)(=O)N(CCC#N)Cc1ccco1 | 0.4% (inactive)
* CCCc1cc(=O)[nH]c(SCC(=O)NCC2COc3ccccc3O2)n1 (stereo unspecified) | -7.96% (inactive)
* Cc1cc(Nc2ccc(Br)cc2)nc(-c2ccccc2O)n1 | -1.59% (inactive)
* CC(=O)NCCn1c(SCc2ccc(C)cc2C)nc2ccccc2c1=O | -4.41% (inactive)
* Fc1ccc2nc(Nc3ccccc3)sc2c1 | -8.41% (inactive)
* Cn1c(SCc2ccccc2)nccc1=O | 1.19% (inactive)
* O=C(CCCCl)Nc1c2c(nn1-c1ccccc1)CSC2 | -3.73% (inactive)
* Cc1occc1-c1nnc(SCC(=O)Nc2ccccc2)n1C | 1.99% (inactive)
* Cc1nc(-c2cc(C#N)c(Sc3cccc(C(F)(F)F)c3)nc2C)cs1 | -11.1% (inactive)
* O=C(O)c1cccc2c1C(=O)c1cc([N+](=O)[O-])cc([N+](=O)[O-])c1-2 | 6.48% (inactive)
* Nc1ncnc2c1ncn2[C@@H]1O[C@H](CNC(=O)[C@@H]2C[C@H](F)CN2)[C@@H](O)[C@H]1O | -0.68% (inactive)
* CCC1=NNc2cccc3c(OC)ccc1c23 | 10.8% (inactive)
* Cc1ccc(/C=N/N2CCN(Cc3ccccc3)CC2)cc1 | -2.27% (inactive)
* CNc1ncnc(Sc2nc(N)nc3nc[nH]c23)c1[N+](=O)[O-] | 16.1% (inactive)
* C=CCn1c(SCc2nc3ccccc3[nH]2)nnc1-c1cccc(OC)c1 | 7.4% (inactive)
* Nc1nc(SCc2ccccc2)c2[nH]cnc2n1 | -9.37% (inactive)
* Cc1ccc(O)c(Cc2cc(C)cc(Cc3cc(C)ccc3O)c2O)c1 | -3.64% (inactive)
* CCN1CCc2c(C#N)c(N3CCCCC3)nc(NCc3ccccc3)c2C1 | 25.2% (inactive)
